# pIC50 annotations
# Measurement Notes: in vitro
# Condition Summary: human, NCI-H460/MX20 cells (ABCG2-overexpressing NSCLC)
Residues, ends and D or L forms follow the SMILES beside them.
Recall that pIC50 is obtained by taking minus log10 of the concentration measured in molar.

These solved cases illustrate the format of a correct answer.
| Molecule | pIC50 |
| --- | --- |
| CC[C@H](C)[C@H](NC(=O)[C@H](CCCNC(=N)N)NC(=O)[C@H](CCCCN)NC(=O)[C@@H](NC(=O)[C@@H](N)Cc1ccccc1)[C@@H](C)CC)C(=O)N[C@@H](C)C(=O)N[C@@H](CCCNC(=N)N)C(=O)N[C@@H](CC(C)C)C(=O)N[C@@H](CC(C)C)C(=O)N[C@@H](CCCNC(=N)N)C(=O)N[C@@H](CCCCN)C(=O)N[C@H](C(=O)N[C@@H](Cc1ccccc1)C(=O)N[C@@H](CCCNC(=N)N)C(=O)O)[C@@H](C)CC [XH-14B] (H-FIKRIARLLRKIFR-OH) | 5.14 |
| CC[C@H](C)[C@H](NC(=O)[C@H](CCCNC(=N)N)NC(=O)[C@H](CCCCN)NC(=O)[C@@H](NC(=O)[C@@H](N)Cc1ccccc1)[C@@H](C)CC)C(=O)N[C@@H](C)C(=O)N[C@@H](CCCNC(=N)N)C(=O)N[C@@H](CC(C)C)C(=O)N[C@@H](CC(C)C)C(=O)N[C@@H](CCCNC(=N)N)C(=O)N[C@@H](CCCCN)C(=O)N[C@H](C(=O)N[C@@H](CCCCN)C(=O)N[C@@H](CCCNC(=N)N)C(=O)O)[C@@H](C)CC [XH-14A] (H-FIKRIARLLRKIKR-OH) | 5.09 |

Moving on to the next molecule.
Exam item: Give the measured pIC50 of CC[C@H](C)[C@H](NC(=O)[C@H](CCCNC(=N)N)NC(=O)[C@H](CCCCN)NC(=O)[C@@H](NC(=O)[C@@H](N)Cc1ccccc1)[C@@H](C)CC)C(=O)N[C@@H](C)C(=O)N[C@@H](CCCNC(=N)N)C(=O)N[C@@H](CC(C)C)C(=O)N[C@@H](CC(C)C)C(=O)N[C@@H](CCCNC(=N)N)C(=O)N[C@@H](CCCCN)C(=O)N[C@H](C(=O)N[C@@H](Cc1c[nH]c2ccccc12)C(=O)N[C@@H](CCCNC(=N)N)C(=O)O)[C@@H](C)CC [XH-14C] (H-FIKRIARLLRKIWR-OH) .
Marked response: 5.08

Provenance of the data: paper PMC7409168
